B1: Osa-1-4 twister ribozyme (parent)
chain: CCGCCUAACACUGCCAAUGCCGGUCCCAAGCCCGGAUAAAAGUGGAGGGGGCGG

variants of: B1; experiment: self-cleavage, relative activity (ratio to wild type); higher = more cleavage; co-transcriptional
endpoint: self-cleavage

sequence_change="A39C G53C" value_observed=0.06
sequence_change="G45C U37G" value_observed=0.07
sequence_change="C25U G19A" value_observed=0.14
sequence_change="A40G U37A" value_observed=0.91
sequence_change="A40C U37A" value_observed=0.07
sequence_change="G35C G48C" value_observed=0.04
sequence_change="A28U G13A" value_observed=0.06
sequence_change="G53U G54C" value_observed=0.14
sequence_change="A10C G54A" value_observed=0.17
sequence_change="C32G G19U" value_observed=0.07
sequence_change="G35A G47U" value_observed=0.18
